# Experiment description: Inhibition of soybean LOX using arachidonic acid as substrate incubated for 5 mins
# Design: species or system Glycine max
pIC50: −log10 of the molar value.
Rule: pIC50 under 6 gives -1, otherwise 1.

Known results for compounds:
COC(=O)[C@H](Cc1ccc(O)cc1)n1nncc1COc1ccc2ccccc2c1-c1c(OCc2cnnn2[C@@H](Cc2ccc(O)cc2)C(=O)OC)ccc2ccccc12    1
CCOC(=O)Cn1nncc1CO[C@@H](C(=O)OCC)[C@@H](OCc1cnnn1CC(=O)OCC)C(=O)OCC    1
O=C(O)Cn1nncc1CO[C@@H](C(=O)O)[C@@H](OCc1cnnn1CC(=O)O)C(=O)O    1
CCOC(=O)Cn1nncc1CO[C@@H](C(=O)OCC)[C@@H](O)C(=O)OCC    -1

Next compound, please.
Prompt line: Form field: pIC50 at least 6? Entry: COC(=O)[C@H](Cc1ccccc1)n1nncc1COc1ccc2ccccc2c1-c1c(OCc2cnnn2[C@@H](Cc2ccccc2)C(=O)OC)ccc2ccccc12
Response line: -1
